ASSAY TARGET: Myocilin (Homo sapiens) (UniProt Q99972)
Sequence (Q99972 whole entry, the tested form may be a part): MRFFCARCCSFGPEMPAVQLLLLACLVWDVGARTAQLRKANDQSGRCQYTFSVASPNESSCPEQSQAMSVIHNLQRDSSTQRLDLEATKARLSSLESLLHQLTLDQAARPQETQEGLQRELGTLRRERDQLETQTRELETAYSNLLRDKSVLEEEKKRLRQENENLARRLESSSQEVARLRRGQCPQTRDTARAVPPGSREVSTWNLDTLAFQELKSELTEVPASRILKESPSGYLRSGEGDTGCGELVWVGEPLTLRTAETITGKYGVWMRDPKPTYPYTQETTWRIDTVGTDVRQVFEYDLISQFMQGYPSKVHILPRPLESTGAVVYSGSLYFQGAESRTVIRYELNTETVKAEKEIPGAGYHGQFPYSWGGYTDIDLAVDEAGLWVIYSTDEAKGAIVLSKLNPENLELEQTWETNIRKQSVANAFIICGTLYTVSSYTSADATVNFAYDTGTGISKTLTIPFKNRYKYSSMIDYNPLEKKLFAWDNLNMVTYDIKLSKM
ASSAY NOTES: Binding affinity myocilin-OLF domain (unknown origin) assessed as change in melting temperature by Sypro Orange dye-based DSF assay
RESULT TYPE: ΔTm (°C)

Example cases with answers are listed next.
# SMILES TEXT, UNIT, OBSERVED RESULT
data = [
    ("O=C1c2ccccc2C(=O)C1C(c1ccc([N+](=O)[O-])cc1)C1C(=O)c2ccccc2C1=O", "°C", 2.02),
    ("Cc1cc(N(CCCl)CCCl)ccc1/C=N/NC(=O)Cc1cc(=O)oc2cc(O)ccc12", "°C", 1.6),
    ("COc1cc(C(=O)C(=O)c2ccc(O)c(OC)c2)ccc1O", "°C", 0.91),
]

I = CN(C)c1ccc(/C=C/C(=O)c2cc(Cl)ccc2O)cc1
II = Cc1ccc(C(C)C)cc1NC(=O)Nc1ccc([N+](=O)[O-])cc1
## Task Which value of ΔTm is smaller, the one for I or the one for II ? Your choice should be expressed through its label.
## Result I
(I: 1.5 °C, II: 6.3 °C)

* * *

ASSAY TARGET: UniProt Q99972
ASSAY NOTES: Binding affinity myocilin-OLF domain (unknown origin) by SRP assay
pKd: −log10 of the molar value.
RESULT TYPE: pKd

# COMPOUND, pKd
measured = [
    ("O=c1cc(-c2ccc(O)cc2)oc2cc(O)cc(O)c12", 4.38),
    ("O=C1Nc2ccc(I)cc2C1=Cc1cc(Br)c(O)c(Br)c1 [GW305074X]", 4.47),
]

* * *

ASSAY TARGET: UniProt Q99972
ASSAY NOTES: Binding affinity myocilin-OLF domain (unknown origin) assessed as change in melting temperature by Sypro Orange dye-based DSF assay
RESULT TYPE: ΔTm (°C)

# annotated cases, reported ΔTm shown
# SMILES TEXT, RESULT TYPE, OBSERVED RESULT
measured = [
    ("O=C(Nc1ccc(Oc2ccc(NC(=O)Nc3ccc([N+](=O)[O-])cc3)cc2)cc1)Nc1ccc([N+](=O)[O-])cc1", "ΔTm", 11.2),
    ("Nc1nc(N)c(/N=N/c2ccc(C(=O)O)cc2)c(N)n1", "ΔTm", 1.78),
]

1 = O=C(Cn1ccc(=O)[nH]c1=O)Nc1ccc(C(=O)O)c(O)c1
2 = O=C(/C=C/c1ccc(O)c(O)c1)c1ccccc1O
3 = COc1cccc(NC(S)=Nc2ccc(O)cc2)c1
## Task Give the ascending ranking of the items by reported ΔTm. When ranking, write the labels in the order the request describes.
## Result 1, 2, 3

* * *

ASSAY TARGET: Myocilin (Homo sapiens, UniProt Q99972)
Sequence (Q99972 whole entry, the tested form may be a part): as above
ASSAY NOTES: Binding affinity myocilin-OLF domain (unknown origin) by Sypro Orange dye-based DSF assay
CONDITION DESCRIPTION: read-out: Kd(app)
pKd: −log10 of the molar value.
RESULT TYPE: pKd

# SMILES TEXT, pKd
measured = [
    ("Nc1nc(N)c(/N=N/c2ccc(C(=O)O)cc2)c(N)n1", 3.72),
    ("O=C(/C=C/c1ccc(O)c(O)c1)c1ccccc1O", 7.00),
    ("CN(C)c1ccc(/C=C/C(=O)c2cc(Cl)ccc2O)cc1", 3.66),
]

A = O=C1c2ccccc2C(=O)C1C(c1ccc([N+](=O)[O-])cc1)C1C(=O)c2ccccc2C1=O
B = COc1cc(C(=O)C(=O)c2ccc(O)c(OC)c2)ccc1O
## Task Lower pKd: A or B ? Respond with the label that goes with your answer.
## Result B
